Experiment: total protein half-life in vivo (active degradation + dilution); higher = more stable protein
Conditions: E. coli NCM3722 delta-lon; growth: N-lim chemostat; doubling time 6 h
EXPERIMENTAL ENDPOINT: total protein half-life in vivo (h)
Respond numerically; units are h and should not be typed.

ITEM SEQUENCE	total protein half-life in vivo [h]
MPLHNLTRFPRLEFIGAPTPLEYLPRFSDYLGREIFIKRDDVTPMAMGGNKLRKLEFLAADALREGADTLITAGAIQSNHVRQTAAVAAKLGLHCVALLENPIGTTAENYLTNGNRLLLDLFNTQIEMCDALTDPNAQLEELATRVEAQGFRPYVIPVGGSNALGALGYVESALEIAQQCEGAVNISSVVVASGSAGTHAGLAVGLEHLMPESELIGVTVSRSVADQLPKVVNLQQAIAKELELTASAEILLWDDYFAPGYGVPNDEGMEAVKLLARLEGILLDPVYTGKAMAGLIDGISQKRFKDEGPILFIHTGGAPALFAYHPHV	6.76

Next sequence, total protein half-life in vivo to be filled in.
Request: Given the entry MIPFNAPPVVGTELDYMQSAMGSGKLCGDGGFTRRCQQWLEQRFGSAKVLLTPSCTASLEMAALLLDIQPGDEVIMPSYTFVSTANAFVLRGAKIVFVDVRPDTMNIDETLIEAAITDKTRVIVPVHYAGVACEMDTIMALAKKHNLFVVEDAAQGVMSTYKGRALGTIGHIGCFSFHETKNYTAGGEGGATLINDKALIERAEIIREKGTNRSQFFRGQVDKYTWRDIGSSYLMSDLQAAYLWAQLEAADRINQQRLALWQNYYDALAPLAKAGRIELPSIPDGCVQNAHMFYIKLRDIDDRSALINFLKEAEIMAVFHYIPLHGCPAGEHFGEFHGEDRYTTKESERLLRLPLFYNLSPVNQRTVIATLLNYFS , report its measured total protein half-life in vivo.
Response: 4.45

###

Assay: total protein half-life in vivo (active degradation + dilution); higher = more stable protein
Conditions: wild type E. coli NCM3722; growth: C-lim chemostat; doubling time 12 h
EXPERIMENTAL ENDPOINT: total protein half-life in vivo
Just the number plus its unit, please.

Request: Given the entry MDSFPAIEIDKVKAWDFRLANINTSECLNVAYGVDANYLDGVGVSITSIVLNNRHINLDFYIIADVYNDGFFQKIAKLAEQNQLRITLYRINTDKLQCLPCTQVWSRAMYFRLFAFQLLGLTLDRLLYLDADVVCKGDISQLLHLGLNGAVAAVVKDVEPMQEKAVSRLSDPELLGQYFNSGVVYLDLKKWADAKLTEKALSILMSKDNVYKYPDQDVMNVLLKGMTLFLPREYNTIYTIKSELKDKTHQNYKKLITESTLLIHYTGATKPWHKWAIYPSVKYYKIALENSPWKDDSPRDAKSIIEFKKRYKHLLVQHHYISGIIAGVCYLCRKYYRK , report its measured total protein half-life in vivo.
Response: 9.31 h

###

Test: total protein half-life in vivo (active degradation + dilution); higher = more stable protein
Conditions: E. coli NCM3722 delta-clpP delta-lon delta-hslV; growth: N-lim chemostat; doubling time 6 h
Lab note: compare total protein half-life in vivo against 5 h. Equal or greater, write fulfilled. Smaller, write not fulfilled.

Examples with answers:
ITEM SEQUENCE	QUALITATIVE LABEL
MSKKLIALCACPMGLAHTFMAAQALEEAAVEAGYEVKIETQGADGIQNRLTAQDIAEATIIIHSVAVTPEDNERFESRDVYEITLQDAIKNAAGIIKEIEEMIASEQQ	not fulfilled
MRLLPLVAAATAAFLVVACSSPTPPRGVTVVNNFDAKRYLGTWYEIARFDHRFERGLEKVTATYSLRDDGGLNVINKGYNPDRGMWQQSEGKAYFTGAPTRAALKVSFFGPFYGGYNVIALDREYRHALVCGPDRDYLWILSRTPTISDEVKQEMLAVATREGFDVSKFIWVQQPGS [P0A901]	fulfilled
MSQFFYIHPDNPQQRLINQAVEIVRKGGVIVYPTDSGYALGCKIEDKNAMERICRIRQLPDGHNFTLMCRDLSELSTYSFVDNVAFRLMKNNTPGNYTFILKGTKEVPRRLLQEKRKTIGMRVPSNPIAQALLEALGEPMLSTSLMLPGSEFTESDPEEIKDRLEKQVDLIIHGGYLGQKPTTVIDLTDDTPVVVREGVGDVKPFL [P0AFR4]	fulfilled
MWYQKTLTLSAKSRGFHLVTDEILNQLADMPRVNIGLLHLLLQHTSASLTLNENCDPTVRHDMERFFLRTVPDNGNYEHDYEGADDMPSHIKSSMLGTSLVLPVHKGRIQTGTWQGIWLGEHRIHGGSRRIIATLQGE [P0AF48]	not fulfilled
MARINRISITLCALLFTTLPLTPMAHASKQARESSATTHITKKADKKKSTATTKKTQKTAKKAASKSTTKSKTASSVKKSSITASKNAKTRSKHAVNKTASASFTEKCTKRKGYKSHCVKVKNAASGTLADAHKAKVQKATKVAMNKLMQQIGKPYRWGGSSPRTGFDCSGLVYYAYKDLVKIRIPRTANEMYHLRDAAPIERSELKNGDLVFFRTQGRGTADHVGVYVGNGKFIQSPRTGQEIQITSLSEDYWQRHYVGARRVMTPKTLR	fulfilled
MTQFASPVLHSLLDTDAYKLHMQQAVFHHYYDVHVAAEFRCRGDDLLGIYADAIREQVQAMQHLRLQDDEYQWLSALPFFKADYLNWLREFRFNPEQVTVSNDNGKLDIRLSGPWREVILWEVPLLAVISEMVHRYRSPQADVAQALDTLESKLVDFSALTAGLDMSRFHLMDFGTRRRFSREVQETIVKRLQQESWFVGTSNYDLARRLSLTPMGTQAHEWFQAHQQISPDLANSQRAALAAWLEEYPDQLGIALTDCITMDAFLRDFGVEFASRYQGLRHDSGDPVEWGEKAIAHYEKLGIDPQSKTLVFSDNLDLRKAVELYRHFSSRVQLSFGIGTRLTCDIPQVKPLNIVIKLVECNGKPVAKLSDSPGKTICHDKAFVRALRKAFDLPHIKKAS	not fulfilled

Now take the following sequence into account.
Request: Answer whether total protein half-life in vivo of MSKKIVLALGGNALGDDLAGQMKAVKITSQAIVDLIAQGHEVIVTHGNGPQVGMINQAFEAAAKTEAHSPMLPMSVCVALSQGYIGYDLQNALREELLSRGINKPVATLVTQVEVDANDPAFLNPTKPIGSFFTEQEAEQLTKQGYTLKEDAGRGYRRVVASPKPVDIIEKETVKALVDAGQVVITVGGGGIPVIREGNHLRGASAVIDKDWASARLAEMIDADMLIILTAVEKVAINFGKENEQWLDRLSLSDAERFIEEGHFAKGSMLPKVEAAASFARSRAGREALITVLSKAKEGIEGKTGTVICQ is greater than or equal to 5 h.
Response: not fulfilled

###

Assay: total protein half-life in vivo (active degradation + dilution); higher = more stable protein
Conditions: E. coli NCM3722 delta-hslV; growth: N-lim chemostat; doubling time 6 h
// reported total protein half-life in vivo per item

ITEM SEQUENCE	total protein half-life in vivo
MRRFFWLVAAALLLAGCAGEKGIVEKEGYQLDTRRQAQAAYPRIKVLVIHYTADDFDSSLATLTDKQVSSHYLVPAVPPRYNGKPRIWQLVPEQELAWHAGISAWRGATRLNDTSIGIELENRGWQKSAGVKYFAPFEPAQIQALIPLAKDIIARYHIKPENVVAHADIAPQRKDDPGPLFPWQQLAQQGIGAWPDAQRVNFYLAGRAPHTPVDTASLLELLARYGYDVKPDMTPREQRRVIMAFQMHFRPTLYNGEADAETQAIAEALLEKYGQD	6.75 h
MKALSKLKAEEGIWMTDVPVPELGHNDLLIKIRKTAICGTDVHIYNWDEWSQKTIPVPMVVGHEYVGEVVGIGQEVKGFKIGDRVSGEGHITCGHCRNCRGGRTHLCRNTIGVGVNRPGCFAEYLVIPAFNAFKIPDNISDDLAAIFDPFGNAVHTALSFDLVGEDVLVSGAGPIGIMAAAVAKHVGARNVVITDVNEYRLELARKMGITRAVNVAKENLNDVMAELGMTEGFDVGLEMSGAPPAFRTMLDTMNHGGRIAMLGIPPSDMSIDWTKVIFKGLFIKGIYGREMFETWYKMAALIQSGLDLSPIITHRFSIDDFQKGFDAMRSGQSGKVILSWD	5.96 h
MTKLKLLALGVLIATSAGVAHAEGKFSLGAGVGVVEHPYKDYDTDVYPVPVINYEGDNFWFRGLGGGYYLWNDATDKLSITAYWSPLYFKAKDSGDHQMRHLDDRKSTMMAGLSYAHFTQYGYLRTTLAGDTLDNSNGIVWDMAWLYRYTNGGLTVTPGIGVQWNSENQNEYYYGVSRKESARSGLRGYNPNDSWSPYLELSASYNFLGDWSVYGTARYTRLSDEVTDSPMVDKSWTGLISTGITYKF [P0A908]	6.01 h
MAKVLVLYYSMYGHIETMARAVAEGASKVDGAEVVVKRVPETMPPQLFEKAGGKTQTAPVATPQELADYDAIIFGTPTRFGNMSGQMRTFLDQTGGLWASGALYGKLASVFSSTGTGGGQEQTITSTWTTLAHHGMVIVPIGYAAQELFDVSQVRGGTPYGATTIAGGDGSRQPSQEELSIARYQGEYVAGLAVKLNG [P0A8G6]	5.48 h
MATDSTQCVKKSRGRPKVFDRDAALDKAMKLFWQHGYEATSLADLVEATGAKAPTLYAEFTNKEGLFRAVLDRYIDRFAAKHEAQLFCEEKSVESALADYFAAIANCFTSKDTPAGCFMINNCTTLSPDSGDIANTLKSRHAMQERTLQQFLCQRQARGEIPPHCDVTHLAEFLNCIIQGMSISAREGASLEKLMQIAGTTLRLWPELVK	1.46 h

Request: Given the entry MNIRDLEYLVALAEHRHFRRAADSCHVSQPTLSGQIRKLEDELGVMLLERTSRKVLFTQAGMLLVDQARTVLREVKVLKEMASQQGETMSGPLHIGLIPTVGPYLLPHIIPMLHQTFPKLEMYLHEAQTHQLLAQLDSGKLDCVILALVKESEAFIEVPLFDEPMLLAIYEDHPWANRECVPMADLAGEKLLMLEDGHCLRDQAMGFCFEAGADEDTHFRATSLETLRNMVAAGSGITLLPALAVPPERKRDGVVYLPCIKPEPRRTIGLVYRPGSPLRSRYEQLAEAIRARMDGHFDKVLKQAV [P0ACQ4] , report its measured total protein half-life in vivo.
Response: 4.79 h
